target: Inadl_3, Q8NI35; experiment: holdup assay; set-up: key: below the threshold = too weak to quantify, mostly under pKd 3.1 to 4; settings: plain residues with an end cap or a label only (N-terminal biotin on a linker: ahx)
Sequence (Q8NI35 359-469): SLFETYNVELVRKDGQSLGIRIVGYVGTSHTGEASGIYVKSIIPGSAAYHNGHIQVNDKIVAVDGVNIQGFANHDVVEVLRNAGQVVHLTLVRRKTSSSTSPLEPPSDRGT
Measure: pKd
Field format: numeric only.

GYDWGPATDL [TJP3, O95049] : 3.72
RRRKRKRTYL [HPV49-L2, P36762] : 3.72
TVICWPGSLV [LNX2, Q8N448] : 4.19

Lookup result for ESLLLGPSNF [SHROOM4, Q9ULL8] ; measured pKd: 3.59

Lookup result for HNAFLSVTTV [PDZRN4, Q6ZMN7] ; measured pKd: 3.66
